The compounds listed here are annotated with their inhibition at 0.1 µM.
- TESTED SYSTEM: human recombinant adrenergic α1D receptor (Homo sapiens)
- Construct: expressed in transfected cells; host or cells: HEK-293
- Sequence (P25100 whole entry): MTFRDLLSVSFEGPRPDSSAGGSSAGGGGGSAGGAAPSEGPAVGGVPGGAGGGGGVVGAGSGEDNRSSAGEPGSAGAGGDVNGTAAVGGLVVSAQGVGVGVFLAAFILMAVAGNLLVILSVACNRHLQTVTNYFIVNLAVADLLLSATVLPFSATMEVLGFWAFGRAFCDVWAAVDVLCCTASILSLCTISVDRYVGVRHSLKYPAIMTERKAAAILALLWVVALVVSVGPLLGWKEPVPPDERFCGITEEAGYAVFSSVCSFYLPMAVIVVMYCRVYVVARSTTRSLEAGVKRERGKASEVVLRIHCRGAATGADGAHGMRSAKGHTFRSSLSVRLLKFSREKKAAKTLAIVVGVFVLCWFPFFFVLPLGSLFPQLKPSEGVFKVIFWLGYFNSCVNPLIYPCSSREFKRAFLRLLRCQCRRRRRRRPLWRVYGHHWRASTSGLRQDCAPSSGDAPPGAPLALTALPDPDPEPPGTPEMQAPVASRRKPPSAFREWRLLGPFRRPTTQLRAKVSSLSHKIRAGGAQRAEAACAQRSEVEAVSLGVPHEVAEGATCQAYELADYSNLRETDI
- ASSAY NOTES: Radioligand binding, adrenergic α1D ([3H]Prazosin)
- MEASUREMENT CONDITIONS: read-out: Percentage inhibition of ligand binding, Adrenergic α1D (0.1 μM), compound at 0.1 μM; [3H]Prazosin; repeat datapoints each shown
Please append the unit to your numeric answer.

Use the examples below as a reference point.
>>> assay_result("C/C(=C\\n1c2c(c3cc(C)ccc31)CCN(C)CC2)c1ccc(Cl)c(Cl)c1 [compound 238]")
"25%"
>>> assay_result("C/C(=C\\n1c2c(c3cc(Cl)ccc31)CCN(C)CC2)c1ccccc1Cl [compound 235]")
"11%"
>>> assay_result("C/C(=C\\n1c2c(c3cc(C)ccc31)C1CCC(C2)N1C)c1ccccc1F (centres unmarked) [compound 231]")
"26%"
>>> assay_result("C/C(=C\\n1c2c(c3cc(Cl)ccc31)CN(C)CC2)c1ccncc1 [compound 185]")
"58%"

Read the next record carefully.
// lookup inhibition at 0.1 µM for C/C(=C\n1c2c(c3cc(C)ccc31)CCN(C)C2C)c1ccccc1F (centres unmarked) [compound 96]
3%

====

- TESTED SYSTEM: rat adrenergic α1B receptor (Rattus norvegicus)
- Construct: rat adrenergic α1B receptor obtained from Wistar Rat liver; from tissue; host or cells: Wistar rat liver
- Sequence (P15823 whole entry): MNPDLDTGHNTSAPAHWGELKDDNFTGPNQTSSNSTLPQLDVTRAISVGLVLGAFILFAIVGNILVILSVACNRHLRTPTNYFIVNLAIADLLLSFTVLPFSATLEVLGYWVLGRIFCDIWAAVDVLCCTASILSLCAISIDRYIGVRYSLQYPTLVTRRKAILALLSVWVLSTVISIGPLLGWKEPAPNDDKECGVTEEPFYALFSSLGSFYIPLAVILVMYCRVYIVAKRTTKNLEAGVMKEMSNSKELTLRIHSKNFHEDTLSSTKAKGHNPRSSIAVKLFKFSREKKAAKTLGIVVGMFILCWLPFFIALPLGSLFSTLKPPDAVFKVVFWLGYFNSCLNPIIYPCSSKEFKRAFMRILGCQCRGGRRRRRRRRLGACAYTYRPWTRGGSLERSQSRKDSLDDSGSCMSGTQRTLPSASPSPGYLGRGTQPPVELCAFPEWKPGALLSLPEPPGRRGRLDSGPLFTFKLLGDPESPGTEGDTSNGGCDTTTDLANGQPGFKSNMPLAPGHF
- ASSAY NOTES: Radioligand binding, adrenergic α1B ([3H]Prazosin)
- MEASUREMENT CONDITIONS: compound at 0.03 μM; [3H]Prazosin; repeat datapoints each shown; 0.03 µM
Use satisfied when the recorded Percentage inhibition of ligand binding, Adrenergic α1B (0.03 μM) is no lower than 50%; use not satisfied when it is lower.

>>> group("Cc1ccc2c(c1)c1c(n2CC(O)c2ccncc2)CCN2CCCC12 (single isomer, unassigned) [129d]")
"satisfied"
>>> group("Cc1ccc2c(c1)c1c(n2CC(C)(O)c2ccc(F)cc2)CCN2CCCC12 (single isomer, unassigned) [II-121b]")
"satisfied"
>>> group("Cc1ccc2c(c1)c1c(n2CC(OC(=O)C(C)(C)C)c2ccncc2)CCN(C)C1 (single isomer, unassigned) [130b]")
"not satisfied"
>>> group("Cc1ccc2c(c1)c1c(n2CC(OC(=O)C(C)(C)C)c2ccncc2)CCN(C)C1 (single isomer, unassigned) [130a]")
"not satisfied"

Kindly determine if Percentage inhibition of ligand binding, Adrenergic α1B (0.03 μM) recorded for Cc1ccc2c(c1)c1c(n2CC(O)c2ccc(C(N)=O)nc2)CCN(C)C1 (single isomer, unassigned) [144b] is above or exactly 50%.
not satisfied

What would you report for `CN1CCc2c(c3cccc(Cl)c3n2CCc2ccccc2)C1` ?
not satisfied

====

The compounds listed here are annotated with their Percentage inhibition of ligand binding, Adrenergic α2A (0.1 μM).
- TESTED SYSTEM: human recombinant adrenergic α2A receptor (Homo sapiens, UniProt P08913)
- Construct: expressed in transfected cells; host or cells: insect Sf9 cells
- Sequence (P08913 whole entry): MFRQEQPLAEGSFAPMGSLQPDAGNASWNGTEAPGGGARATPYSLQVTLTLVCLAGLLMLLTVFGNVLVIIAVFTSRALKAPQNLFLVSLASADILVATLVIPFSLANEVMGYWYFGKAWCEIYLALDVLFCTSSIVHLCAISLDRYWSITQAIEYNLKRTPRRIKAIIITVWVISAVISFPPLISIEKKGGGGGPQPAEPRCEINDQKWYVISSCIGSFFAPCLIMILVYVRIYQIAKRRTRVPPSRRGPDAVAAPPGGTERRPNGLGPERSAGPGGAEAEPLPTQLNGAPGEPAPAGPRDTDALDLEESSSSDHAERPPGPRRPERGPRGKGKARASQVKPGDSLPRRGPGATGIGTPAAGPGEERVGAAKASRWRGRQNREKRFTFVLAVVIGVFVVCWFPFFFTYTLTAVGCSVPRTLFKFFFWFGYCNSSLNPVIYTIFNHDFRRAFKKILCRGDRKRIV
- ASSAY NOTES: Radioligand binding, adrenergic α2A ([3H]MK-912)
- MEASUREMENT CONDITIONS: compound at 0.1 μM; [3H]MK-912; repeat datapoints each shown; 0.1 µM
- Experimental: To evaluate in radioligand binding assays the activity of compounds of the invention, human recombinant adrenergic α2A receptor expressed in insect Sf9 cells (Uhlen, S. et al, J. Pharmacol. Exp. Ther. 271:1558, 1994) in a modified Tris-HCl buffer (50 mM Tris-HCl, pH 7.4, 12.5 mM MgCl2, 2 mM EDTA) was used. […] Receptor proteins were filtered and washed, the filters were then counted to determine [^3H]MK-912 specifically bound. […]

Use the examples below as a reference point.
>>> assay_result("CNC(Cn1c2c(c3cc(C)ccc31)CN(C)CC2)c1ccncc1 (single isomer, unassigned) [151b]")
"8%"
>>> assay_result("Cc1cnc2c(c1)c1c(n2CCc2ccncc2)CCN2CCCC12 (single isomer, unassigned) [II-244a]")
"22%"
>>> assay_result("CN1CCc2c(c3cc(C(F)(F)F)ccc3n2CC(C)(O)c2cccnc2)C1 (single isomer, unassigned) [174b]")
"6%"
>>> assay_result("CC(O)(Cn1c2c(c3cc(Cl)cnc31)C1CCCN1CC2)c1cccnc1 (single isomer, unassigned) [IV-210a]")
"37%"
>>> assay_result("Cc1ccc(C(C)(O)Cn2c3c(c4cc(Cl)ccc42)CN(C)CC3)cn1 (stereo not shown) [compound 93]")
"21%"

// lookup Percentage inhibition of ligand binding, Adrenergic α2A (0.1 μM) for Cc1ccc2c(c1)c1c(n2CC(C)(O)c2ccc(C)nc2)CN(C)CC1 (single isomer, unassigned) [196a]
71%

What would you report for Cc1cnc2c(c1)c1c(n2CCc2cnc(C)nc2)CCN2CCCC12 (single isomer, unassigned) [IV-93a] ?
18%
